Biological target: neprilysin (Homo sapiens)
Sequence (P08473 whole entry): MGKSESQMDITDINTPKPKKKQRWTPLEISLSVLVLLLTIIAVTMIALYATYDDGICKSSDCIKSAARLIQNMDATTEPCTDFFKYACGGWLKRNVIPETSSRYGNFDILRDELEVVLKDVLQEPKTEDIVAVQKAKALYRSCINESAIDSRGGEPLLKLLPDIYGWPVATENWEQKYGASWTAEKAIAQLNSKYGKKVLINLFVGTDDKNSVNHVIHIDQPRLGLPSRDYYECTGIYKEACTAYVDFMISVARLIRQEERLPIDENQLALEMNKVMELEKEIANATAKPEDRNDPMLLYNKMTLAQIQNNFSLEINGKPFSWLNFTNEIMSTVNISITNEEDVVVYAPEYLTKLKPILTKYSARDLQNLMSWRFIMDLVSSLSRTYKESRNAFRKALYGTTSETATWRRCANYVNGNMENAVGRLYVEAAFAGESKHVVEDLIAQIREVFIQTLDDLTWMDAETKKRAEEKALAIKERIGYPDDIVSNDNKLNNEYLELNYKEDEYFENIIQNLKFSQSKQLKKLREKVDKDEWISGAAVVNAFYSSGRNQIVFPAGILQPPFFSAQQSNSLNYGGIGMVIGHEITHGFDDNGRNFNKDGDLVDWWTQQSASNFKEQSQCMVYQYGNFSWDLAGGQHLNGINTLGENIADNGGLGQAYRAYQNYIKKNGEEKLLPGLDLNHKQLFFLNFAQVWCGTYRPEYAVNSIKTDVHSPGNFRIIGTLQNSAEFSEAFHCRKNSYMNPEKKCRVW
OUTCOME_MEASURE: pIC50
Please note pIC50 is a logarithmic value: minus log10 of concentration in mol/L. Answer with that number alone.

Qu. Entry under review: CNC(=O)[C@H](Cc1c[nH]c2ccccc12)NC(=O)[C@@H](CC(=O)NO)CC(C)C [GM6001] . Reported pIC50?
Ans. 7.77

---

OUTCOME_MEASURE: pIC50
Please note pIC50 is a logarithmic value: minus log10 of concentration in mol/L. Answer with that number alone.

Qu. GET /values?readout=pIC50&system=dipeptidylpeptidase III (DPPIII) (Homo sapiens)&item= `CNC(=O)[C@H](Cc1c[nH]c2ccccc12)NC(=O)[C@@H](CC(=O)NO)CC(C)C`
Ans. 7.12

---

Molecular target: leucine aminopeptidase (LAP) (Mus musculus, UniProt Q9CPY7)
Sequence (Q9CPY7 1-519): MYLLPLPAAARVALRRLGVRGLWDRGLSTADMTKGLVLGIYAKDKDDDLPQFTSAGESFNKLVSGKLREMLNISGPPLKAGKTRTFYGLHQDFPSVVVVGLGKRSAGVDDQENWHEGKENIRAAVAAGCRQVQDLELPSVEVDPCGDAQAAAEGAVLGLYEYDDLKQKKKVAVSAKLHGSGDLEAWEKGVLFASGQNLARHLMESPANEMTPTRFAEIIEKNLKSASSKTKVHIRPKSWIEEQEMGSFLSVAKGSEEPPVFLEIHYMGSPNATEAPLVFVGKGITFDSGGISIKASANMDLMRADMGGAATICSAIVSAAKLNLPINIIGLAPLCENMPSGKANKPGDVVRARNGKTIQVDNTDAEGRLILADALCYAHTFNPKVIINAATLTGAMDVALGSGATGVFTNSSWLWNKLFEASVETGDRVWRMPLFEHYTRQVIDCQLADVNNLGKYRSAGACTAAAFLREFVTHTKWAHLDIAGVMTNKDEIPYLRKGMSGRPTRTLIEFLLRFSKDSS
OUTCOME_MEASURE: pIC50
Please note pIC50 is a logarithmic value: minus log10 of concentration in mol/L. Answer with that number alone.

Qu. Entry under review: `CNC(=O)[C@H](Cc1c[nH]c2ccccc12)NC(=O)[C@@H](CC(=O)NO)CC(C)C` . Reported pIC50?
Ans. 6.95
